IC50, RGA 1 for assorted binders
- Study Target: T1, human IL-11 (human, UniProt P20809 22-199)
- T1 sequence: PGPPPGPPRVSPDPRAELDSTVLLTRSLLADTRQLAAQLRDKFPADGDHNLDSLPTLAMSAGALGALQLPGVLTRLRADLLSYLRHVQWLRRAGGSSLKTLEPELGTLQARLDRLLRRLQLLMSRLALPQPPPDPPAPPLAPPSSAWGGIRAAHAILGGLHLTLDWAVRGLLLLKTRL
- Procedure Text: cell-based or functional assay
Numbers only here, please. The scale is µM.

Binder	IC50, RGA 1 / µM
TPP-31294 (antibody, IgG4, V domains shown, hIgG4 SPLE, lambda) VH: EVQLLESGGGLVQPGGSLRLSCAASGFTFSHYDMNWLRQAPGKGLEWVAVISYDGSNKFYADFVKGRFTISRDNSKNTLYLQMNSLRAEDTAVYYCARTPGSHFDYWGQGTLVTVSS VL: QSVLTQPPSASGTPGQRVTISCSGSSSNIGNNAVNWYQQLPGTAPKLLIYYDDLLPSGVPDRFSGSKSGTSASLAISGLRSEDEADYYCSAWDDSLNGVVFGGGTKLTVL	0.096

Field IC50, RGA 1 (entry TPP-31288 (antibody, IgG4, V domains shown) VH: EVQLLESGGGVVQPGGSLRLSCAASGFTFSHYDMNWLRQAPGKGLEWVGVISYDGSNKFYADFVKGRFTISRDNSKNTLYLQMNSLRAEDTAVYYCARTPGSHFDYWGQGTLVTVSS VL: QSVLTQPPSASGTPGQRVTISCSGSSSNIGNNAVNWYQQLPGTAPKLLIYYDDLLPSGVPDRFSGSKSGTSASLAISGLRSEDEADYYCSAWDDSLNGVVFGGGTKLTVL ) reads 0.067
